Cited source for all entries: PubChem BioAssay AID651997

TEST_SYSTEM: G-protein coupled receptor 183 (Homo sapiens) (UniProt P32249)
Sequence (P32249 whole entry, looked up): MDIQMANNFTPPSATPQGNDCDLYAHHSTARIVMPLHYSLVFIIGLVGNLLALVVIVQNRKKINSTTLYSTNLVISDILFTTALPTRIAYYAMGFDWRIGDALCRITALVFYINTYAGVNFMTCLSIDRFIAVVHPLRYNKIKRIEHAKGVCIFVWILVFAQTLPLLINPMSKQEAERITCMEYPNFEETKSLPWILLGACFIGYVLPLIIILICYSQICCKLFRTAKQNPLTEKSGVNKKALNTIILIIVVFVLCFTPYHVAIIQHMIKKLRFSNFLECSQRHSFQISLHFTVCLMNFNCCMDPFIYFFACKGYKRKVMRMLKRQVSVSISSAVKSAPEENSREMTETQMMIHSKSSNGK
ASSAY_NOTES: repeat testing of EBI2 arrestin blockers – cell-based, single concentration, luminescence, 7a,25-OHC stimulation, confirmation (AID 651997)
PARTICULARS: EBI2 beta-arrestin luminescence, 7a,25-OHC antagonism; at 5 µM; active compounds read high
About 700 (29%) of roughly 2,400 compounds were called active. A selection follows.
Use Fulfilled when the recorded inhibition is no lower than 30%; use Not fulfilled when it is lower.

Query: Does O=C(NCCCc1ccccc1)C1CCC(=O)N(CCc2ccc(Cl)cc2)C1 (centres undefined) have a reported inhibition of at least 30%?
Result: Fulfilled

Query: I'd appreciate it if you could say whether `CCOC(=O)C1CCN(C(=O)COc2cc(C)c(Br)c(C)c2)CC1` has inhibition at least equal to 30%.
Result: Fulfilled

Query: # check: inhibition of `Cc1ccc2oc(=O)c3cnn(CC(=O)N4CCCCCC4)c3c2c1` is greater than or equal to 30%
Result: Fulfilled

Query: Test whether the molecule `CCCCC(=O)N(C)c1c(CC)nc2c(OCc3ccc(Cl)cc3Cl)cccn12` records inhibition of 30% or higher.
Result: Fulfilled

Query: API: above_or_equal(metric=inhibition, cutoff=30%) for item `COc1ccc(-c2cn(-c3ccc(OC)cc3)c(=S)[nH]2)cc1`
Result: Fulfilled

Query: API: above_or_equal(metric=inhibition, cutoff=30%) for item CCCC1CCC(=NNC(=S)NCCc2ccccc2)CC1 (centres undefined)
Result: Not fulfilled

Query: Is inhibition at least 30%? Consider `CCOC(=O)N1CCN(C(=O)CSc2ccc(Cl)cc2)CC1`
Result: Fulfilled

Query: // inclusive: inhibition at least 30%? input: `COc1ccc(-c2cc(C3CCN(c4ncccc4[N+](=O)[O-])CC3)[nH]n2)cc1`
Result: Fulfilled

Query: Dear colleague, could you confirm whether `Fc1ccc(N2CCN(Cc3cnc(Oc4ccc(Br)cc4)s3)CC2)cc1` has inhibition at or above 30%?
Result: Fulfilled

Query: # bool: inhibition of `COc1ccc(N(CC(=O)Nc2cc(OC)ccc2OC)S(=O)(=O)c2c(C)noc2C)cc1` >= 30%
Result: Not fulfilled

Query: Evaluate `CN(Cc1ccc(F)cc1)C(=O)COc1ccc2ccccc2c1` : inhibition at minimum 30%?
Result: Fulfilled

Query: Is inhibition for `COc1ccc(Nc2cc(Sc3ccc(OC)cc3)ncn2)cc1` at or above 30%?
Result: Not fulfilled

Query: # check: inhibition of `O=C(NCCNc1ccc([N+](=O)[O-])cc1)c1cccc2c(Br)cccc12` is greater than or equal to 30%
Result: Fulfilled

Query: Would you say `CCOc1ccc(C(C)=O)cc1COC(=O)c1cnc(Cl)c(Cl)c1` shows inhibition at minimum 30%?
Result: Not fulfilled

Query: Does the molecule `O=C(CCNS(=O)(=O)c1ccccc1)NCCSc1ccc(Br)cc1` have recorded inhibition that is 30% or more?
Result: Not fulfilled

Query: Hi team, for `CCOC(=O)N1CCN(C(=O)COc2ccc(Br)cc2)CC1` , is the recorded inhibition at or above 30%?
Result: Fulfilled

Query: Please check the record `COc1cc(/C=C(\C#N)C(=O)Nc2ccc3ccccc3c2)c([N+](=O)[O-])cc1OC` and state if its inhibition is at or above 30%.
Result: Fulfilled

Query: inhibition >= 30% for CCC(c1nnc(SCC(=O)NNC(=O)c2ccccc2)n1Cc1ccccc1)N(C)C (centres undefined) ?
Result: Fulfilled

Query: Could you verify whether the entry `Cc1cccc(N=C2NC(=O)/C(=C/c3cn(C)c4ccccc34)S2)c1` shows inhibition of no less than 30%?
Result: Fulfilled

Query: Given N#Cc1ccc(C(c2nnnn2CCc2ccccc2)N2CCCCCC2)cc1 (centres undefined) , state whether its inhibition is at least 30%.
Result: Fulfilled

Query: Confirm if inhibition reported for the molecule `CCOc1ccc(CN(Cc2ccco2)S(=O)(=O)c2ccc(-n3cnnn3)c(OC)c2)cc1` is 30% or above.
Result: Not fulfilled

Query: I'd appreciate it if you could say whether `Cc1ccc(OCCNC(=O)CCNS(=O)(=O)c2ccc(Br)cc2)cc1` has inhibition at least equal to 30%.
Result: Not fulfilled

Query: Hi, just wondering whether `COc1ccc(/C=N/N=C/c2c[nH]c(=O)c(C#N)c2Nc2ccccc2)cc1` shows inhibition of 30% or higher.
Result: Fulfilled

Query: Would you say O=C(C(c1ccccc1)c1ccccc1)N1CCN(CC(O)COc2ccccc2)CC1 (centres undefined) shows inhibition at minimum 30%?
Result: Not fulfilled

Query: Is inhibition for `Cc1ccc(SCC(=O)N2CCN(c3ccc(F)cc3)CC2)cc1` at or above 30%?
Result: Fulfilled

Query: Quick check: does `O=c1[nH]c(CN2CCN(S(=O)(=O)c3ccc4c(c3)OCCO4)CC2)nc2sc3c(c12)CCCC3` have inhibition greater than or equal to 30%?
Result: Not fulfilled

Query: inhibition >= 30% for COc1ccc(C(c2nnnn2C2CCCC2)N2CCN(C/C=C/c3ccccc3)CC2)cc1 (centres undefined) ?
Result: Fulfilled

Query: Say whether `CCN(CC(=O)NCc1cccs1)C(=O)/C=C/c1ccc(C)cc1` shows inhibition of 30% or more.
Result: Fulfilled

Query: // inclusive: inhibition at least 30%? input: `COc1ccc(-n2c(Cc3cccn3C)nnc2SCC(=O)Nc2cc(C)cc(C)c2)cc1`
Result: Not fulfilled

Query: Could you verify whether the entry `O=C(CSc1ccccc1)Nc1cc(Cl)ccc1Oc1ccccc1` shows inhibition of no less than 30%?
Result: Fulfilled

Query: Please tell me: is the molecule CC1(Cc2ccccc2C#N)C(=O)Nc2ccc(-c3ccc4[nH]ccc4c3)cc21 (centres undefined) at or over 30% in terms of inhibition?
Result: Fulfilled

Query: inhibition >= 30% for `O=C(c1cc2cc(F)ccc2[nH]1)N1CCN(c2ccc(F)cc2)CC1` ?
Result: Fulfilled

Query: For this molecule, is measured inhibition 30% or higher? `O=C(/C=C/c1cccc(C(F)(F)F)c1)N1CCN(c2ccccn2)CC1`
Result: Not fulfilled

Query: Record `Cc1ccc2oc(=O)c3cnn(CC(=O)N(Cc4ccco4)C4CCCCC4)c3c2c1` ; criterion: inhibition no lower than 30%. Met?
Result: Fulfilled
